All figures here come from patent US20110135636A1.

biological target: T1, recombinant human EGFR extracellular domain with 6xHis (human, UniProt P00533 25-645); assay: SPR competition, competitor Ab-10
T1 construct: In-house produced; also called 6xHis EGFR ECD; soluble human EGFR ECD; not shown: 6xHis tag
property measured: % inhibition (%)
Reply with just the number (in %).

Request the reported % inhibition associated with antibody 992 (antibody, human IgG1, kappa, V domains shown, Chimeric mouse/human IgG1 kappa; the VL entry includes the human kappa constant region) VH: EVQLQQPGSELVRPGASVKLSCKASGYTFTSYWMHWVKQRPGQGLEWIGNIYPGSRSTNYDEKFKSKATLTVDTSSSTAYMQLSSLTSEDSAVYYCTRNGDYYVSSGDAMDYWGQGTSVTVSS VL: DIQMTQTTSSLSASLGDRVTISCRTSQDIGNYLNWYQQKPDGTVKLLIYYTSRLHSGVPSRFSGSGSGTDFSLTINNVEQEDVATYFCQHYNTVPPTFGGGTKLEIKR
-4
